biological target: T1, human IL-8 (human, UniProt P10145 23-99, limits assumed); assay: SPR Biacore T200, Protein A/G capture, pH 7.4, 40C;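 also: antibodies captured via Protein A/G, which was amine-coupled to a CM4 sensor chip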
T1 construct: also called hIL-8; hIL8
T1 sequence (P10145 23-99 limits assumed): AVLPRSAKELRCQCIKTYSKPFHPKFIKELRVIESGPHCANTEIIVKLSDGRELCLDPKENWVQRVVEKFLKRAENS
QUANTITY_KIND: pKd
Note on pKd: it is the negative log10 of concentration, concentration in mol/L.

Which pKd is listed for H1049/L0442 (antibody, human IgG1, kappa, name in Kabat numbering, V domains shown, L442 = L395 + S31E) VH: QVQLVESGGGLVQPGGSLRLSCAASGFTFDKYYLSWVRQAPGKGLEWVGLIRNKDNYHTPEYSASVKGRFTISRDDSKNSLYLTMSDLKTEDTAVYYCARENHRYDVELAYWGQGTLVTVSS VL: DIQMTQSPSSLSASVGDRVTITCRASEIIYEYLAWYQQKPGKAPKLLIYKAKTHADGVPSRFSGSGSGTDFTFTISSLQPEDIATYYCKHHFGFPRTFGQGTKVEIKR ?
10.28
